target: NAGA; test: pooled miR-30 sensor sort-seq; sequence = guide strand; conditions: shRNA; note: reference of the scale not given here
readoutLabel: sensor-assay potency score (higher = more potent)

Provide the reported sensor-assay potency score (higher = more potent) of each entry below, same order.
1. TTGTCCAGTGTGGTGCCTGGGT
2. TTCGAAAACTTCCAAATCCTGA
3. TTGTCCAGCATCAGCACCTGGG
4. TTGATTTTGATCATGAGTGGAT
5. TCATATATCACAGACCCGGTGA
6. TTGAGCATGTCTACCTTCCACT

1: -0.646; 2: -0.213; 3: -0.84; 4: 0.182; 5: -0.0849; 6: -1.03

Provide the reported sensor-assay potency score (higher = more potent) of each entry below, same order.
1. TTGCTCAGCAACGTCTGTGGGG
2. TGAAGTTGGTTTCATCTCGGAG
3. TTTTCCTTGTGAATCCTGCGTC

1. -0.463
2. -0.453
3. 0.331
